pIC50, human PKCθ full length enzyme (Homo sapiens), per-entry values.
pIC50: −log10 of the molar value.
readout-type: pIC50

# structure-smiles-string, readout-type, comparison-sign, quantitative-result
records = [
    ("Cc1ccc(S(=O)(=O)n2ccc3c(Cl)c(Nc4c(C#N)cnc5sc(I)cc45)cnc32)cc1", "pIC50", "=", 4.85),
    ("Cc1c(I)sc2ncc(C#N)c(Nc3ccc4[nH]ccc4c3)c12", "pIC50", "=", 6.14),
    ("Cc1c(Nc2c(C#N)cnc3sc(-c4cccc5ccccc45)cc23)ccc2[nH]ccc12", "pIC50", "=", 6.40),
    ("Cc1c(Nc2c(C#N)cnc3sc(C#Cc4cncc(C(=O)N(C)C)c4)cc23)ccc2[nH]ccc12", "pIC50", "=", 7.62),
    ("CN(C)Cc1ccc(-c2cc3c(Nc4ccc5[nH]ccc5c4)c(C#N)cnc3s2)s1", "pIC50", "=", 7.09),
    ("Cc1c(Nc2c(C#N)cnc3sc(-c4cnc(N(C)C)nc4)cc23)ccc2[nH]ccc12", "pIC50", "<", 4.60),
    ("N#Cc1cnc2sc(-c3cccc(CNCCN4CCOCC4)c3)cc2c1Nc1ccc2[nH]ccc2c1", "pIC50", "=", 6.37),
    ("CCCCOc1ccccc1-c1cc2c(Nc3ccc4[nH]ccc4c3C)c(C#N)cnc2s1", "pIC50", "=", 5.70),
    ("N#Cc1cnc2sc(C(=O)O)cc2c1Nc1ccc2[nH]ccc2c1", "pIC50", "=", 5.69),
    ("COc1ccc(CN(C)C)cc1-c1cc2c(Nc3ccc4[nH]ccc4c3C)c(C#N)cnc2s1", "pIC50", "=", 8.30),
    ("N#Cc1cnc2sc(-c3cccc(CN4CCN(CCn5ccnc5)CC4)c3)cc2c1Nc1ccc2[nH]ccc2c1", "pIC50", "=", 6.55),
    ("CN(C)CCN1CCN(Cc2cccc(-c3cc4c(Nc5ccc6[nH]ccc6c5)c(C#N)cnc4s3)c2)CC1", "pIC50", "=", 6.89),
    ("N#Cc1cnc2sc(/C=C/C(=O)N3CCCC3)cc2c1Nc1ccc2[nH]ccc2c1", "pIC50", "=", 6.89),
    ("CN(c1ccc2[nH]ccc2c1)c1c(C#N)cnc2sc(-c3ccccc3)cc12", "pIC50", "<", 4.26),
    ("CN1CCN(Cc2cccc(C#Cc3cc4c(Nc5ccc6[nH]ccc6c5)c(C#N)cnc4s3)n2)CC1", "pIC50", "=", 6.49),
    ("Cc1c(Nc2c(C#N)cnc3sc(-c4cccnn4)cc23)ccc2[nH]ccc12", "pIC50", "=", 7.82),
    ("N#Cc1cnc2sc(/C=C/c3cccc(F)c3)cc2c1Nc1ccc2[nH]ccc2c1", "pIC50", "=", 6.33),
    ("Cc1c(Nc2c(C#N)cnc3sc(/C=C/C(=O)OC(C)(C)C)cc23)ccc2[nH]ccc12", "pIC50", "=", 6.50),
    ("Cc1c(Nc2c(C#N)cnc3sc(C#Cc4cccc(CN(C)C)n4)cc23)ccc2[nH]ccc12", "pIC50", "=", 7.85),
    ("Cc1c(Nc2c(C#N)cnc3sc(-c4cc5cc(CN(C)C)ccc5s4)cc23)ccc2[nH]ccc12", "pIC50", "=", 6.77),
    ("COC(=O)c1cc2c(Nc3ccc4[nH]ccc4c3C)c(C#N)cnc2s1", "pIC50", "=", 7.17),
    ("N#Cc1cnc2sc(-c3cccc(CNCCCO)c3)cc2c1Nc1ccc2[nH]ccc2c1", "pIC50", "=", 6.96),
    ("CN(C)Cc1ccc(C#Cc2cc3c(Nc4ccc5[nH]ccc5c4)c(C#N)cnc3s2)nc1", "pIC50", "=", 6.10),
    ("Cc1c(Nc2c(C#N)cnc3sc(-c4ccc(NS(C)(=O)=O)cc4)c(C)c23)ccc2[nH]ccc12", "pIC50", "=", 6.20),
]

====

# assayed-target: human PKCθ full length enzyme (Homo sapiens)
pIC50: −log10 of the molar value.
readout-type: pIC50

# molecule, comparison-sign, quantitative-result
measured = [
    ("Cc1c(Nc2c(C#N)cnc3sc(-c4ccc(S(=O)(=O)NCCN(C)C)cc4)cc23)ccc2[nH]ccc12", "=", 7.51),
    ("COCCNC(=O)c1cc2c(Nc3ccc4[nH]ccc4c3C)c(C#N)cnc2s1", "=", 7.04),
    ("CN1CCN(C(=O)/C=C/c2cc3c(Nc4ccc5[nH]ccc5c4)c(C#N)cnc3s2)CC1", "=", 6.48),
    ("CCOc1ccccc1-c1cc2c(Nc3ccc4[nH]ccc4c3C)c(C#N)cnc2s1", "=", 6.36),
    ("N#Cc1cnc2sc(-c3ccc(S(=O)(=O)NC4CCCCC4)cc3)cc2c1Nc1ccc2[nH]ccc2c1", "=", 4.40),
    ("Cc1c(Nc2c(C#N)cnc3sc(-c4ccncc4)cc23)ccc2[nH]ccc12", "=", 7.89),
    ("Cc1c(Nc2c(C#N)cnc3sc(/C=C/C(=O)N4CCNCC4)cc23)ccc2[nH]ccc12", "=", 7.06),
    ("Cc1c(Nc2c(C#N)cnc3sc(/C=C/C(=O)N4CCC(O)C4)cc23)ccc2[nH]ccc12 (stereo not shown)", "=", 7.39),
    ("Cc1c(Nc2c(C#N)cnc3sc(-c4ccccc4OC[C@@H](O)CO)cc23)ccc2[nH]ccc12", "=", 7.30),
    ("COCCOc1ccc(-c2cc3c(Nc4ccc5[nH]ccc5c4C)c(C#N)cnc3s2)cc1OCCOC", "=", 5.79),
    ("N#Cc1cnc2sc(C#Cc3cnc(N)nc3)cc2c1Nc1ccc2[nH]ccc2c1", "<", 5.82),
    ("Cc1c(Nc2c(C#N)cnc3sc(C(=O)Nc4cccnc4)cc23)ccc2[nH]ccc12", "=", 7.15),
    ("Cc1c(Nc2c(C#N)cnc3sc(-c4ccccc4CO)cc23)ccc2[nH]ccc12", "=", 7.12),
    ("Cc1c(Nc2c(C#N)cnc3sc(-c4ccc(N5CCOCC5)nc4)cc23)ccc2[nH]ccc12", "=", 6.80),
    ("CC(=O)Nc1ccccc1-c1cc2c(Nc3ccc4[nH]ccc4c3C)c(C#N)cnc2s1", "=", 6.55),
    ("CN1CCN(CCC#Cc2csc3ncc(C#N)c(Nc4ccc5[nH]ccc5c4)c23)CC1", "=", 6.24),
]

====

pIC50, PKCθ (Homo sapiens), per-entry values.
pIC50: −log10 of the molar value.

# structure-smiles-string, pIC50
data = [
    ("N#Cc1cnc2sc(-c3cccc(CN4CCN(CCN5CCOCC5)CC4)c3)cc2c1Nc1ccc2[nH]ccc2c1", 7.39),
    ("CN1CCN(Cc2cccc(-c3cc4c(Nc5cccc6[nH]ccc56)c(C#N)cnc4s3)c2)CC1", 7.47),
    ("N#Cc1cnc2sc(-c3ccccc3)cc2c1NCCc1c[nH]cn1", 5.52),
]

====

pIC50: −log10 of the molar value.
pIC50, PKCθ (Homo sapiens, UniProt Q04759), per-entry values.

# compound, pIC50
rows = [
    ("CN(C)Cc1cccc(C#Cc2cc3c(Nc4ccc5[nH]ccc5c4)c(C#N)cnc3s2)n1 [Compound 217]", 7.23),
    ("N#Cc1cnc2sc(C#Cc3ccccn3)cc2c1Nc1ccc2[nH]ccc2c1 [Compound 213]", 7.12),
    ("N#Cc1cnc2sc(C#Cc3ccccc3)cc2c1Nc1ccc2[nH]ccc2c1 [Compound 215]", 6.30),
    ("CN1CCN(Cc2ncc(-c3cc4c(Nc5ccc6[nH]ccc6c5)c(C#N)cnc4s3)n2C)CC1 [Compound 210]", 6.24),
]

====

# assayed-target: human PKCθ full length enzyme (Homo sapiens, UniProt Q04759)
# Sequence (Q04759 whole entry): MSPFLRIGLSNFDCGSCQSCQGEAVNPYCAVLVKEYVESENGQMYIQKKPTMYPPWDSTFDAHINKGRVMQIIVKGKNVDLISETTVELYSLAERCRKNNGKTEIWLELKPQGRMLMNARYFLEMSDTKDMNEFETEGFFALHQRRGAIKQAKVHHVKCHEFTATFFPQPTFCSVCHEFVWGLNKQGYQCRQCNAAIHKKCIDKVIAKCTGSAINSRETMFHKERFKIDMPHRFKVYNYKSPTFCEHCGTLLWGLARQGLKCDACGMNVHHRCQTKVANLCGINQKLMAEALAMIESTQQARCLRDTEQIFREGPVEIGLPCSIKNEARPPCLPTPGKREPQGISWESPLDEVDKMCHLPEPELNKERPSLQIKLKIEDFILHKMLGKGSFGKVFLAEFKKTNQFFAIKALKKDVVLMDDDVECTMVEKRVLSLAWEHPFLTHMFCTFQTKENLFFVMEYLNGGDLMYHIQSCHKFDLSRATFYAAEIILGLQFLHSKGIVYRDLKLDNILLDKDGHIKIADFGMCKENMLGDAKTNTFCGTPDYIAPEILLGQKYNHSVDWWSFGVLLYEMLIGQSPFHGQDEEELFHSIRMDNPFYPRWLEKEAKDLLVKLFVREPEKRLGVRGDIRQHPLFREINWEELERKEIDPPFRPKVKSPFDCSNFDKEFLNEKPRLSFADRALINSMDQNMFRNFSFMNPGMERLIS
The entries below come with measured IC50 values attached.
readout-type: IC50 (nM)

# molecule, assayed-target, readout-type, output-unit, quantitative-result
records = [
    ("Cc1c(Nc2c(C#N)cnc3sc(-c4ccc(O)cc4)cc23)ccc2[nH]ccc12 [Compound 441]", "human PKCθ full length enzyme (Homo sapiens, UniProt Q04759)", "IC50", "nM", 29),
    ("COc1ccc(C)cc1-c1cc2c(Nc3ccc4[nH]ccc4c3C)c(C#N)cnc2s1 [Compound 366]", "human PKCθ full length enzyme (Homo sapiens, UniProt Q04759)", "IC50", "nM", 106),
    ("Cc1c(Nc2c(C#N)cnc3sc(-c4ccc(CN5CCN(C)CC5)cc4)cc23)ccc2[nH]ccc12 [Compound 121]", "human PKCθ full length enzyme (Homo sapiens, UniProt Q04759)", "IC50", "nM", 38),
    ("Cc1c(Nc2c(C#N)cnc3sc(-c4ccccc4NS(C)(=O)=O)cc23)ccc2[nH]ccc12 [Compound 371]", "human PKCθ full length enzyme (Homo sapiens, UniProt Q04759)", "IC50", "nM", 182),
    ("CNS(=O)(=O)c1cccc(-c2sc3ncc(C#N)c(Nc4ccc5[nH]ccc5c4C)c3c2C)c1 [Compound 428]", "human PKCθ full length enzyme (Homo sapiens, UniProt Q04759)", "IC50", "nM", 60),
    ("Cc1c(Nc2c(C#N)cnc3sc(C(=O)N4CCCC4)cc23)ccc2[nH]ccc12 [Compound 249]", "human PKCθ full length enzyme (Homo sapiens, UniProt Q04759)", "IC50", "nM", 48),
    ("Cc1c(Nc2c(C#N)cnc3sc(C#Cc4ccc(CN(C)C)s4)cc23)ccc2[nH]ccc12 [Compound 448]", "human PKCθ full length enzyme (Homo sapiens, UniProt Q04759)", "IC50", "nM", 83),
    ("Cc1c(Nc2c(C#N)cnc3sc(C#Cc4cc(CN(C)C)ccn4)cc23)ccc2[nH]ccc12 [Compound 444]", "human PKCθ full length enzyme (Homo sapiens, UniProt Q04759)", "IC50", "nM", 176),
    ("Cc1c(Nc2c(C#N)cnc3sc(-c4ccccc4)c(C)c23)ccc2[nH]ccc12 [Compound 424]", "human PKCθ full length enzyme (Homo sapiens, UniProt Q04759)", "IC50", "nM", 194),
    ("CNS(=O)(=O)c1ccc(-c2cc3c(Nc4ccc5[nH]ccc5c4)c(C#N)cnc3s2)cc1 [Compound 198]", "human PKCθ full length enzyme (Homo sapiens, UniProt Q04759)", "IC50", "nM", 59),
    ("CC1CCCN1C(=O)/C=C/c1cc2c(Nc3ccc4[nH]ccc4c3)c(C#N)cnc2s1 (stereo not shown) [Compound 291]", "human PKCθ full length enzyme (Homo sapiens, UniProt Q04759)", "IC50", "nM", 105),
    ("CC(C)(C)OC(=O)N1CC=C(c2cc3c(Nc4ccc5[nH]ccc5c4)c(C#N)cnc3s2)CC1 [Compound 419]", "human PKCθ full length enzyme (Homo sapiens, UniProt Q04759)", "IC50", "nM", 954),
    ("Cc1c(Nc2c(C#N)cnc3sc(/C=C/CN4CCOCC4)cc23)ccc2[nH]ccc12 [Compound 275]", "human PKCθ full length enzyme (Homo sapiens, UniProt Q04759)", "IC50", "nM", 56),
    ("Cc1c(Nc2c(C#N)cnc3sc(-c4cccc(N(C)CCN(C)C)c4)cc23)ccc2[nH]ccc12 [Compound 390]", "human PKCθ full length enzyme (Homo sapiens, UniProt Q04759)", "IC50", "nM", 43),
    ("N#Cc1cnc2sc(-c3cccc(CN4CCN(CCN5CCOCC5)CC4)c3)cc2c1Nc1ccc2[nH]ccc2c1 [Compound 150]", "human PKCθ full length enzyme (Homo sapiens, UniProt Q04759)", "IC50", "nM", 160),
    ("CCOC(=O)c1cc2c(Nc3ccc4[nH]ccc4c3)c(C#N)cnc2s1 [Compound 502]", "human PKCθ full length enzyme (Homo sapiens, UniProt Q04759)", "IC50", "nM", 1100),
]
